Origin of measurements: the Human Domainome abundance scans (Beltran et al. 2025)

Listing of entries alongside the reported abundance fitness.
B1: Histone-lysine N-methyltransferase SETD2, residues 2382 to 2430; numbered along this chain, Q9BYW2 (parent)
chain: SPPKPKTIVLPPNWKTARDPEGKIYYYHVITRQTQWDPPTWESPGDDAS

variants of: B1; assay: abundance fitness (aPCA) (normalised: wild type 0, dead -1); higher = more abundant; growth selection in yeast, the domain comes from the species named; conditions: Homo sapiens
property.name: abundance fitness

# sequence.input, result
measured = [
    ("SPFKPKTIVLPPNWKTARDPEGKIYYYHVITRQTQWDPPTWESPGDDAS", 0.197),
    ("SPPKPKTIVLPPNWKQARDPEGKIYYYHVITRQTQWDPPTWESPGDDAS", 0.136),
    ("SPPKPKTIVLPPNWKTARDPEGKIYYYHVITRQTQWDPPTWESPGDTAS", -0.032),
    ("SPPKPKTIVLPPNWKTARDPEGKIYYYHVITRQTQWDPPTWESAGDDAS", -0.115),
    ("SPPKPKTIVLPPNWKTARDPEGKIYYYHVISRQTQWDPPTWESPGDDAS", -0.131),
    ("SPPKPKTIVLPPNWKTARDPEGKIYYYHVITRQTDWDPPTWESPGDDAS", -0.869),
    ("SPPKPKTIVLSPNWKTARDPEGKIYYYHVITRQTQWDPPTWESPGDDAS", -0.453),
    ("SPPKPKTIVLPPNWKTARDPEGKIYYYHVITRQTQWDPATWESPGDDAS", -0.918),
    ("SPPKPKTIVLPPNWKTARDPEGKIYYYHVITRQTQWDPPTWESPRDDAS", 0.035),
    ("SPPKPKTIVLPPNWKTARDPEGKIYYYQVITRQTQWDPPTWESPGDDAS", -0.64),
    ("SPPKPKTIVLPPNWKTARDPEGKIYYYHVITRQTQWDPPTSESPGDDAS", 0.195),
    ("SPPKPKTIVLPPNHKTARDPEGKIYYYHVITRQTQWDPPTWESPGDDAS", -0.615),
    ("SPPKPKTIVLPPNWKTARDPEGKIYYYHVIGRQTQWDPPTWESPGDDAS", -0.927),
    ("SPPKPKTIVLPPNWKTARDPEGKIYYYHVITRQTQWDPPTWESPGRDAS", -0.286),
    ("SPPKPITIVLPPNWKTARDPEGKIYYYHVITRQTQWDPPTWESPGDDAS", -0.037),
    ("SPPWPKTIVLPPNWKTARDPEGKIYYYHVITRQTQWDPPTWESPGDDAS", -0.798),
    ("SPPKPKTIVLPPNWKTARDPEGKIYYYHVITRQTQWQPPTWESPGDDAS", -0.235),
    ("SPPKPKTIVLPPNWKTARDPCGKIYYYHVITRQTQWDPPTWESPGDDAS", -0.134),
    ("SPPKPKTIVLPPNWKTARDPEGKIYYYHVITRQTQWDPPTWESPYDDAS", 0.049),
    ("SPPFPKTIVLPPNWKTARDPEGKIYYYHVITRQTQWDPPTWESPGDDAS", -0.41),
    ("SPPKPKTIVLPPNWKTARDPEGKIYYYHVFTRQTQWDPPTWESPGDDAS", -0.361),
    ("SPPKPWTIVLPPNWKTARDPEGKIYYYHVITRQTQWDPPTWESPGDDAS", -0.393),
    ("SPPKPKTIVLPPNWKTARDPEGKIYYYHVITRQTQWDPPTWESDGDDAS", -0.108),
    ("SPPKPKTIVLPPNWKTARDPEGKIYYYHVITRQTQWDPPTWESPGKDAS", -0.166),
    ("SPPKPKTIVLPPNWKTARDPEGKIAYYHVITRQTQWDPPTWESPGDDAS", -0.642),
    ("SPPKPKTIVLPPNTKTARDPEGKIYYYHVITRQTQWDPPTWESPGDDAS", -0.935),
    ("SPPRPKTIVLPPNWKTARDPEGKIYYYHVITRQTQWDPPTWESPGDDAS", -0.532),
    ("SPPKPKTIVLPPNWKTARDPEGKIYYYHVITRQTQQDPPTWESPGDDAS", -0.139),
    ("SPPEPKTIVLPPNWKTARDPEGKIYYYHVITRQTQWDPPTWESPGDDAS", -0.908),
    ("SPPKPKTIVLPPNWKTARDPEGKIKYYHVITRQTQWDPPTWESPGDDAS", -0.569),
    ("SPPKPKTIVLPPNWKTARDPEGKIYYYHVITRQTQWDPPTWESPGDDAV", -0.62),
    ("SPPKPKTIVLPPNWKTARDPEGKIYYYHVITIQTQWDPPTWESPGDDAS", -0.997),
    ("SPPKPKTIVLPPNWKTARDNEGKIYYYHVITRQTQWDPPTWESPGDDAS", -0.008),
    ("SFPKPKTIVLPPNWKTARDPEGKIYYYHVITRQTQWDPPTWESPGDDAS", 0.031),
    ("SPPKPKTIVLPPHWKTARDPEGKIYYYHVITRQTQWDPPTWESPGDDAS", -0.052),
    ("SPPKPKTIVLPPNWKTARDPEGKIYYYHVITRATQWDPPTWESPGDDAS", -0.149),
]
